- run description: self-splicing fitness, log relative to wild type (ln ratio); higher = more splicing; Tetrahymena group I intron in knt gene, E. coli kanamycin selection, DiMSum; sequences stand for … in CUCUCU…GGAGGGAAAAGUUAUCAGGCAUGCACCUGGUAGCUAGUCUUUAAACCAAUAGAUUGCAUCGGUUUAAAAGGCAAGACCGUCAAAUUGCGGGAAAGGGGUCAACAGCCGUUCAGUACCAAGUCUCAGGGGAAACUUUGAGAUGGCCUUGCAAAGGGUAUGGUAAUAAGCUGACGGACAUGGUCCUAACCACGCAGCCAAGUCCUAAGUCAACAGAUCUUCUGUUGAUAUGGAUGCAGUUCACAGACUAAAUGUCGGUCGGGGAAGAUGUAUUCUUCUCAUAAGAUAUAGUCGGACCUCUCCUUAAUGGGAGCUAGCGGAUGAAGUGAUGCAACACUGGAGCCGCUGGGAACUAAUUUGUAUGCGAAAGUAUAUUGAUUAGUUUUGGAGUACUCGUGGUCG;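 also: selection with 25 µg/mL kanamycin versus none on LB agar overnight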
- measurement conditions: 37 °C
endpoint name: self-splicing fitness (ln)

Suppose we examine the sequence UAGUAGCAAUAUUACGUACU ; what self-splicing fitness (ln) value has been reported?
-0.109

Suppose we examine the sequence UAUGAGCAAUAUUACGACAC ; what self-splicing fitness (ln) value has been reported?
-1.97

Suppose we examine the sequence UAUAAGCAAUAUUACGAAAA ; what self-splicing fitness (ln) value has been reported?
-1.27

Suppose we examine the sequence UAUCAGCAAUAUUACGCAAC ; what self-splicing fitness (ln) value has been reported?
-1.52

Suppose we examine the sequence CCCUAGCAAUAUUACGUAAA ; what self-splicing fitness (ln) value has been reported?
-2.22

Suppose we examine the sequence AUUGAGCAAUAUUACGACUU ; what self-splicing fitness (ln) value has been reported?
-0.31

Suppose we examine the sequence AGCGAGCAAUAUUACGUUAA ; what self-splicing fitness (ln) value has been reported?
-2.67

Suppose we examine the sequence CCGUAGCAAUAUUACGACAG ; what self-splicing fitness (ln) value has been reported?
-0.234

Suppose we examine the sequence UUGCAGCAAUAUUACGAAGG ; what self-splicing fitness (ln) value has been reported?
-1.53

Suppose we examine the sequence CAGGAGCAAUAUUACGAGCU ; what self-splicing fitness (ln) value has been reported?
-2.52

Suppose we examine the sequence UCAUAGCAAUAUUACGAACU ; what self-splicing fitness (ln) value has been reported?
-2.08

Suppose we examine the sequence GACGAGCAAUAUUACGACAG ; what self-splicing fitness (ln) value has been reported?
-1.89

Suppose we examine the sequence UCGAAGCAAUAUUACGGCCA ; what self-splicing fitness (ln) value has been reported?
0.195

Suppose we examine the sequence ACUGAGCAAUAUUACGCUAA ; what self-splicing fitness (ln) value has been reported?
-3.71

Suppose we examine the sequence GGAGAGCAAUAUUACGCGAA ; what self-splicing fitness (ln) value has been reported?
-2.72

Suppose we examine the sequence CAUCAGCAAUAUUACGAGUC ; what self-splicing fitness (ln) value has been reported?
-1.6

Suppose we examine the sequence GCCAAGCAAUAUUACGGCCA ; what self-splicing fitness (ln) value has been reported?
-1.18

Suppose we examine the sequence UGGGAGCAAUAUUACGAGCU ; what self-splicing fitness (ln) value has been reported?
-1.69

Suppose we examine the sequence AUGUAGCAAUAUUACGGCGG ; what self-splicing fitness (ln) value has been reported?
-1.14

Suppose we examine the sequence ACCGAGCAAUAUUACGCAUU ; what self-splicing fitness (ln) value has been reported?
-1.78

Suppose we examine the sequence CGUCAGCAAUAUUACGGCCU ; what self-splicing fitness (ln) value has been reported?
-1.79

Suppose we examine the sequence AAAGAGCAAUAUUACGGGGA ; what self-splicing fitness (ln) value has been reported?
-1.81

Suppose we examine the sequence CUAUAGCAAUAUUACGAGGG ; what self-splicing fitness (ln) value has been reported?
-2.41

Suppose we examine the sequence AACCAGCAAUAUUACGCGGU ; what self-splicing fitness (ln) value has been reported?
-2.43

====

- run description: self-splicing fitness, log relative to wild type (ln ratio); higher = more splicing; Tetrahymena group I intron in knt gene, E. coli kanamycin selection, DiMSum; sequences stand for … in CUCUCU…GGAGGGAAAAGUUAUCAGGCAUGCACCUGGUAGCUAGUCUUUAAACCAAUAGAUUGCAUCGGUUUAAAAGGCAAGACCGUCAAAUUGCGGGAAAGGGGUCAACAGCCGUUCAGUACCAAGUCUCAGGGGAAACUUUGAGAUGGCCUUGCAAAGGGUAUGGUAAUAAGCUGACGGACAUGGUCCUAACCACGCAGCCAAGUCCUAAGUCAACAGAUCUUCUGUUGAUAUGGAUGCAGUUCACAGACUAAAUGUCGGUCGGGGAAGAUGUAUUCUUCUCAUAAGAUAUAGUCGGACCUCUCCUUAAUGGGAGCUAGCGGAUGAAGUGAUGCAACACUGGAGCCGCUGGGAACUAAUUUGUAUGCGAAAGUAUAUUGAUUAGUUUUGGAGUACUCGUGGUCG
- measurement conditions: 37 °C
endpoint name: self-splicing fitness (ln)
Quick one: just the number, no unit, thanks!

Suppose we examine the sequence ACUGAGCAAUAUUACGAGCU ; what self-splicing fitness (ln) value has been reported?
-1.02

Suppose we examine the sequence GUCUAGCAAUAUUACGGUCG ; what self-splicing fitness (ln) value has been reported?
-0.996

Suppose we examine the sequence ACUAAGCAAUAUUACGUAGG ; what self-splicing fitness (ln) value has been reported?
-0.98

====

I'd appreciate it if you could supply self-splicing fitness (ln) values for the items below.
- run description: self-splicing fitness, log relative to wild type (ln ratio); higher = more splicing; Tetrahymena group I intron in knt gene, E. coli kanamycin selection, DiMSum; sequences stand for … in CUCUCU…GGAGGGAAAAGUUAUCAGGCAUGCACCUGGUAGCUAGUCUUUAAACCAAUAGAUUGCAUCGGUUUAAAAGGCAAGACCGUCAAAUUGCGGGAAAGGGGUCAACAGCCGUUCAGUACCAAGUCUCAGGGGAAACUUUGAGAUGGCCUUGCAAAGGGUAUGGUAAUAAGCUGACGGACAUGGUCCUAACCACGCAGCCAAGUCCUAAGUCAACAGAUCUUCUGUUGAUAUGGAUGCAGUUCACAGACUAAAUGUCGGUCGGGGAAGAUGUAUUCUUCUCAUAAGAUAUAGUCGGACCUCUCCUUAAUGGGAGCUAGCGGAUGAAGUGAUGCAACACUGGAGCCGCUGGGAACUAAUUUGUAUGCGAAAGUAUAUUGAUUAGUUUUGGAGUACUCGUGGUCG
- measurement conditions: 30 °C
Quick one: just the number, no unit, thanks!

Suppose we examine the sequence ACACAGCAAUAUUACGAGUC ; what self-splicing fitness (ln) value has been reported?
-5.36

Suppose we examine the sequence AAUGAGCAAUAUUACGCCUG ; what self-splicing fitness (ln) value has been reported?
-3.5

Suppose we examine the sequence GGUCAGCAAUAUUACGCUAC ; what self-splicing fitness (ln) value has been reported?
-3.55

Suppose we examine the sequence CAACAGCAAUAUUACGUUAA ; what self-splicing fitness (ln) value has been reported?
-2.36

Suppose we examine the sequence UAUGAGCAAUAUUACGCGUG ; what self-splicing fitness (ln) value has been reported?
-1.88

Suppose we examine the sequence AUCUAGCAAUAUUACGACAA ; what self-splicing fitness (ln) value has been reported?
-1.76

Suppose we examine the sequence AAUCAGCAAUAUUACGAGGC ; what self-splicing fitness (ln) value has been reported?
-3.28

Suppose we examine the sequence UGCGAGCAAUAUUACGGGAU ; what self-splicing fitness (ln) value has been reported?
-3.78

Suppose we examine the sequence CAGGAGCAAUAUUACGAUGA ; what self-splicing fitness (ln) value has been reported?
-1.76

Suppose we examine the sequence UACGAGCAAUAUUACGACAA ; what self-splicing fitness (ln) value has been reported?
-2.15

Suppose we examine the sequence CUAUAGCAAUAUUACGAGGG ; what self-splicing fitness (ln) value has been reported?
-3.08

Suppose we examine the sequence AGAGAGCAAUAUUACGUUAU ; what self-splicing fitness (ln) value has been reported?
-2.61

Suppose we examine the sequence CGUCAGCAAUAUUACGCGCC ; what self-splicing fitness (ln) value has been reported?
-1.58

Suppose we examine the sequence GGUGAGCAAUAUUACGAGUG ; what self-splicing fitness (ln) value has been reported?
-2.19

Suppose we examine the sequence UACUAGCAAUAUUACGUUCC ; what self-splicing fitness (ln) value has been reported?
-2.22

Suppose we examine the sequence CCAUAGCAAUAUUACGAAGU ; what self-splicing fitness (ln) value has been reported?
-3.61

Suppose we examine the sequence GUUUAGCAAUAUUACGAUCG ; what self-splicing fitness (ln) value has been reported?
-1.61

Suppose we examine the sequence UAGCAGCAAUAUUACGGUGG ; what self-splicing fitness (ln) value has been reported?
-1.85

Suppose we examine the sequence AGUAAGCAAUAUUACGGUCU ; what self-splicing fitness (ln) value has been reported?
-0.432

Suppose we examine the sequence CAGAAGCAAUAUUACGAUAG ; what self-splicing fitness (ln) value has been reported?
-0.588

Suppose we examine the sequence CAGCAGCAAUAUUACGCCAA ; what self-splicing fitness (ln) value has been reported?
-3.43

Suppose we examine the sequence GGAGAGCAAUAUUACGAUUG ; what self-splicing fitness (ln) value has been reported?
-2.75

Suppose we examine the sequence UUUGAGCAAUAUUACGACUU ; what self-splicing fitness (ln) value has been reported?
-3.13

Suppose we examine the sequence GGGGAGCAAUAUUACGCAUU ; what self-splicing fitness (ln) value has been reported?
-3.09

Suppose we examine the sequence ACCGAGCAAUAUUACGCGAG ; what self-splicing fitness (ln) value has been reported?
-2.75

Suppose we examine the sequence CGCGAGCAAUAUUACGCGAC ; what self-splicing fitness (ln) value has been reported?
-2.96

Suppose we examine the sequence CAGGAGCAAUAUUACGAGCU ; what self-splicing fitness (ln) value has been reported?
-3.44

Suppose we examine the sequence CGAAAGCAAUAUUACGUAAA ; what self-splicing fitness (ln) value has been reported?
-2.45

Suppose we examine the sequence AUAGAGCAAUAUUACGUAUU ; what self-splicing fitness (ln) value has been reported?
-2.46

Suppose we examine the sequence UAUUAGCAAUAUUACGCAUC ; what self-splicing fitness (ln) value has been reported?
-3.67

These measurements were taken from the supplement of paper PMC7877785.
